Test system: C. elegans
Test Summary: microbe, parasite or virus in culture
Condition Details: Caenorhabditis elegans, 24 h, read-out: Percentage of motility inhibition 24 h, Table S2, C. elegans SS assay, 110 μM, 24 h, averages of 4 data points
Readout Type: inhibition at 110 µM
Please answer using a numeric value trailed by its unit.

Incoming: inhibition at 110 µM for C[C@H](CO)C1=C(O)C(=O)c2c(ccc3c2CCCC3(C)C)C1=O ?
Outgoing: 25%

Incoming: Consider the molecule shown here: Cn1c([N+](=O)[O-])cnc1COC(N)=O What is its recorded inhibition at 110 µM?
Outgoing: 0%

Incoming: What measured inhibition at 110 µM goes with O=C1C[C@@H](c2ccc(O[C@@H]3O[C@H](CO)[C@@H](O)[C@H](O)[C@H]3O)cc2)Oc2cc(O)ccc21 ?
Outgoing: 14%

Incoming: Name the reported inhibition at 110 µM value associated with the molecule O=C(OCc1ccccc1)c1ccccc1 [Benzyl benzoate]
Outgoing: 36%

Incoming: Which inhibition at 110 µM value belongs to Oc1c(Br)cc(Br)c2cccnc12 ?
Outgoing: 8%

Incoming: Tell me the measured inhibition at 110 µM of O=c1c(O)c(-c2cc(O)c(O)c(O)c2)oc2cc(O)ccc12 , please.
Outgoing: 7%

Incoming: Requested field: inhibition at 110 µM. Item: O=C1c2c(O)cc(O)cc2O[C@H](c2ccc(O)cc2)[C@H]1O [Dihydrokaempferol]
Outgoing: 0%

Incoming: # get_value(readout='inhibition at 110 µM', item= O=c1cc(-c2ccc(O)cc2)oc2cc(O)c([C@@H]3O[C@H](CO)[C@@H](O)[C@H](O)[C@H]3O)c(O)c12 )
Outgoing: 6%

###

Field: inhibition at 110 µM. Provide a value for each of the compounds that follow.
Tested on: C. elegans
Test Summary: microbe, parasite or virus in culture
Condition Details: Caenorhabditis elegans, 0 h, read-out: Percentage of motility inhibition 0 h
Give a bare numeral; the unit % is implied.

Incoming: Quick one: inhibition at 110 µM of C[C@H](CCC(=O)O)[C@H]1CC[C@H]2[C@@H]3[C@H](O)C[C@@H]4C[C@H](O)CC[C@]4(C)[C@H]3C[C@H](O)[C@]12C ?
Outgoing: 0

Incoming: Value lookup for inhibition at 110 µM; key = Cc1c(O)c(C)c2c(c1O)C(=O)C[C@@H](c1ccc(O)cc1)O2
Outgoing: 6

Incoming: What does the data say about its inhibition at 110 µM? Entry: CC(=O)OCC1=CO[C@@H](OC(=O)CC(C)C)[C@H]2C1=C[C@H](OC(=O)CC(C)(C)OC(C)=O)[C@]21CO1 [Acevaltrate]
Outgoing: 7

Incoming: Request the reported inhibition at 110 µM associated with COc1ccc2c(c1)[nH]c1c(C)nccc12
Outgoing: 36

Incoming: For the compound COC(=O)C1=CC[C@@]23CC[C@@H]([C@@](C)(/C=C/C=C(\C)C(=O)O)OC2=O)[C@@]3(OC(C)=O)CC1 , what inhibition at 110 µM is on record?
Outgoing: 0

Incoming: Looking for the measured inhibition at 110 µM of CN/C(=N/CC1CCOC1)N[N+](=O)[O-] (centres unmarked) , can you help?
Outgoing: 7

Incoming: What value of inhibition at 110 µM has been recorded for this entry: COC(=O)C1=CO[C@@H](O[C@@H]2O[C@H](CO)[C@@H](O)[C@H](O)[C@H]2O)[C@H]2[C@@H]1C=C[C@@]2(O)CO [Gardenoside]
Outgoing: 0

Incoming: Fill blank: measured inhibition at 110 µM of the compound COc1cc(CNC(=O)CCCC/C=C/C(C)C)ccc1O is ____.
Outgoing: 0

Incoming: inhibition at 110 µM for Cc1ncc([N+](=O)[O-])n1CC(C)O (centres unmarked) ?
Outgoing: 26

Incoming: GET /values?readout=inhibition at 110 µM&item= O=C1N[C@@H](Cc2c[nH]c3ccccc23)C(=O)N2CCC[C@@H]12 [Brevianamide F]
Outgoing: 31

Incoming: # input compound: O=C(O)CCc1nc2ccccc2[nH]1 ; wanted: its inhibition at 110 µM
Outgoing: 0

Incoming: Which value of inhibition at 110 µM has been reported for C/C=C(/C)C(=O)O[C@H]1[C@@H]2[C@H](C)C(=O)O[C@@H]2C[C@@H](C)[C@@H]2C=CC(=O)[C@]21C in the records?
Outgoing: 0

Incoming: Look up inhibition at 110 µM: O=C(O)c1ccccc1
Outgoing: 3

Incoming: Item under review: CC1(C)CC[C@]2(C(=O)O)CC[C@]3(C)C(=CC[C@@H]4[C@@]5(C)CCC(=O)C(C)(C)[C@@H]5CC[C@]43C)[C@@H]2C1 . Reported inhibition at 110 µM?
Outgoing: 15

Incoming: Please look up its inhibition at 110 µM: COC(=O)c1cccnc1 [Methyl nicotinate]
Outgoing: 0

Incoming: I have this compound here, CC1(C)CC[C@]2(C(=O)O)CC[C@]3(C)C(=CC[C@@H]4[C@@]5(C)CC[C@H](O)[C@@](C)(CO)[C@@H]5CC[C@]43C)[C@@H]2C1 , and I need its recorded inhibition at 110 µM.
Outgoing: 30

Incoming: Give its inhibition at 110 µM value. Item: C[C@@H]1O[C@@H](O[C@H]2[C@H](O[C@H]3CC[C@@]4(C)[C@@H](CC[C@]5(C)[C@@H]4CC=C4[C@@H]6CC(C)(C)CC[C@]6(C(=O)O)CC[C@]45C)[C@]3(C)CO)OC[C@H](O)[C@@H]2O)[C@H](O)[C@H](O)[C@H]1O
Outgoing: 6

Incoming: Which inhibition at 110 µM value is on record for C[C@@H]1O[C@@H](O[C@H]2C(=O)c3c(O)cc(O)cc3O[C@@H]2c2ccc(O)c(O)c2)[C@H](O)[C@H](O)[C@H]1O ?
Outgoing: 31

Incoming: Can you share its inhibition at 110 µM? I mean this compound: COc1cccc(O)c1-c1cc(=O)c2c(O)c(OC)c(OC)c(OC)c2o1
Outgoing: 4

Incoming: Would you mind telling me what inhibition at 110 µM value was observed for O=C1c2ccccc2-n2c1nc1ccccc1c2=O ?
Outgoing: 11

Incoming: Could you share which inhibition at 110 µM value was measured for O=C(O)CCCC[C@@H]1SC[C@@H]2NC(=O)N[C@@H]21 ?
Outgoing: 14

Incoming: Entry under review: N=C(N)NCCC[C@H](N)C(=O)O . Reported inhibition at 110 µM?
Outgoing: 0

Incoming: Reported inhibition at 110 µM, compound COc1ccc(C(C)=O)c(O)c1 : ____
Outgoing: 0

Incoming: Given the compound c1ccc2[nH]ccc2c1 , what is its reported inhibition at 110 µM?
Outgoing: 13

Incoming: Recorded inhibition at 110 µM of O=C(/C=C/c1ccc(O)cc1)OC[C@H]1O[C@@H](Oc2c(-c3ccc(O)cc3)oc3cc(O)cc(O)c3c2=O)[C@H](O)[C@@H](O)[C@@H]1O [Tiliroside] , please.
Outgoing: 2

Incoming: # lookup: inhibition at 110 µM of C/C(=C\CC[C@@H](C)[C@H]1CC[C@@]2(C)C3=C(CC[C@]12C)[C@@]1(C)CCC(=O)C(C)(C)[C@@H]1CC3=O)C(=O)O
Outgoing: 6

###

Test system: C. elegans
Test Summary: microbe, parasite or virus in culture
Condition Details: Caenorhabditis elegans, 24 h, read-out: Percentage of motility inhibition 24 h, Table S2, C. elegans SS assay, 110 μM, 24 h, averages of 4 data points
Readout Type: inhibition at 110 µM

Incoming: Tell me reported inhibition at 110 µM for O=C1O[C@H]([C@@H](O)CO)C(O)=C1O [L-Ascorbic acid] , tested with C. elegans.
Outgoing: 9%

Incoming: Lab note: need inhibition at 110 µM with C. elegans for entry Oc1cc(O)c2c(c1)O[C@H](c1ccc(O)c(O)c1)[C@H](O)C2 [(‐)‐Epicatechin] , please look it up.
Outgoing: 23%

Incoming: inhibition at 110 µM of C/C1=C\CC[C@]23O[C@H]2[C@@H](OC3=O)c2c(C)coc2C1 [Linderane] on C. elegans?
Outgoing: 16%

Incoming: Record lookup: for C. elegans, what inhibition at 110 µM belongs to N[C@@H](Cc1ccccc1)C(=O)O [L-Phenylalanine] ?
Outgoing: 21%

Incoming: Query the reported inhibition at 110 µM for C. elegans; item: COC(=O)c1ccccc1O [Methyl Salicylate]
Outgoing: 12%

Incoming: Record lookup: for C. elegans, what inhibition at 110 µM belongs to CO[C@H]1/C=C/O[C@@]2(C)Oc3c(C)c(O)c4c(O)c(c(/C=N/N5CCN(C)CC5)c(O)c4c3C2=O)NC(=O)/C(C)=C\C=C\[C@H](C)[C@H](O)[C@@H](C)[C@@H](O)[C@@H](C)[C@H](OC(C)=O)[C@@H]1C [Rifampicin] ?
Outgoing: 4%

Incoming: Param readout= inhibition at 110 µM; system= C. elegans; entry= C[C@@H]1O[C@@H](O[C@H]2[C@H](OC(=O)[C@]34CCC(C)(C)C[C@H]3C3=CC[C@@H]5[C@@]6(C)C[C@H](O)[C@H](O[C@@H]7O[C@H](CO)[C@@H](O)[C@H](O)[C@H]7O)C(CO)(CO)[C@@H]6CC[C@@]5(C)[C@]3(C)C[C@H]4O)OC[C@H](O)[C@@H]2O)[C@H](O)[C@H](O)[C@H]1O[C@@H]1OC[C@@H](O)[C@H](O[C@@H]2OC[C@](O)(CO)[C@H]2O)[C@H]1O [Platycodin D] ; returns value.
Outgoing: 15%

Incoming: Recall the recorded inhibition at 110 µM for Cc1ccc2[nH]c3ccccc3c2c1 [3‐Methylcarbazole] with C. elegans and state it.
Outgoing: 29%

Incoming: Form field - read-out: inhibition at 110 µM; system: C. elegans; submitted item: CC(C)=CCC[C@](C)(O[C@@H]1O[C@H](CO[C@H]2O[C@H](CO)[C@@H](O)[C@@H]2O)[C@@H](O)[C@H](O)[C@H]1O)[C@H]1CC[C@]2(C)[C@@H]1[C@H](O)C[C@@H]1[C@@]3(C)CC[C@H](O)C(C)(C)[C@@H]3[C@@H](O)C[C@]12C [Ginsenoside F5]
Outgoing: 17%

Incoming: Checklist item: inhibition at 110 µM tested on C. elegans, entry CC(C)=C1CC[C@@H](C)CC1=O [Pulegone] , value?
Outgoing: 5%

Incoming: Fill in the recorded inhibition at 110 µM for this compound, with C. elegans as test system: Nc1nc2c(ncn2COCCO)c(=O)[nH]1 [Acyclovir]
Outgoing: 12%

Incoming: Request - read-out inhibition at 110 µM | tested on C. elegans | compound Cc1cn([C@H]2O[C@@H](CO)[C@H](O)[C@H]2F)c(=O)[nH]c1=O [Clevudine]
Outgoing: 0%

Incoming: API: value(readout=inhibition at 110 µM, system=C. elegans) for record C=C1CCC2CC1C2(C)C (stereo not drawn) [β-Pinene]
Outgoing: 12%

Incoming: Form entry - test system: C. elegans; read-out: inhibition at 110 µM; compound: Nc1nc(NC2CC2)c2ncn([C@H]3C=C[C@@H](CO)C3)c2n1 [Abacavir]
Outgoing: 2%

Incoming: C. elegans / inhibition at 110 µM / CCC(C)n1ncn(-c2ccc(N3CCN(c4ccc(OCC5COC(Cn6cncn6)(c6ccc(Cl)cc6Cl)O5)cc4)CC3)cc2)c1=O (stereo not shown) [Itraconazole] : value?
Outgoing: 22%

Incoming: Give the reported inhibition at 110 µM for CNC(=O)c1cccnc1 [N‐Methylnicotinamide] (system: C. elegans).
Outgoing: 0%

Incoming: # value lookup — system C. elegans, readout inhibition at 110 µM, item CN1[C@@H]2CC[C@H]1C[C@@H](O)C2 [Tropine]
Outgoing: 0%

Incoming: Short answer please: inhibition at 110 µM, C. elegans, entry NC[C@H]1O[C@H](O[C@H]2[C@H](O)[C@@H](O[C@H]3O[C@H](CO)[C@@H](O)[C@H](N)[C@H]3O)[C@H](N)C[C@@H]2N)[C@H](N)[C@@H](O)[C@@H]1O [Bekanamycin]
Outgoing: 10%

Incoming: Quick check: inhibition at 110 µM on C. elegans, item O=[N+]([O-])c1cncn1CCN1CCOCC1 [Nimorazole] ?
Outgoing: 0%

Incoming: Report inhibition at 110 µM for Cc1oc(=O)oc1CN1CCN(c2cc3c(cc2F)c(=O)c(C(=O)O)c2n3C(C)S2)CC1 (stereo not shown) [Prulifloxacin] tested on C. elegans.
Outgoing: 0%

Incoming: // fetch C. elegans inhibition at 110 µM for Cc1cc(C)c(Nc2ccnc(Nc3ccc(C#N)cc3)n2)c(C)c1 [Dapivirine]
Outgoing: 4%

Incoming: Reported inhibition at 110 µM for C. elegans, given Nc1[nH]c(=O)ncc1F [Flucytosine] ?
Outgoing: 32%
